Avg % Deletion values for the sequences below.
- System: TTR
- assay_text: TTR editing in primary cyno hepatocytes electroporated with Spy Cas9 protein and dgRNAs (Tables 10, 11)
- Format: cell-based, cynomolgus monkey
- condition_label: primary cyno hepatocytes electroporated with Spy Cas9 protein (RNP) and cyno specific dgRNAs

AAAGUUCUAGAUGCCGUCCG (tested as dual guide RNA, chemistry not given here) [CR005369] : 33.92%

Lab entry: TTR assay, sequence CCAGUCCAGCGAGGCAGAGG (tested as dual guide RNA, chemistry not given here) [CR005367] , Avg % Deletion = 50.26%

Param item: AAAGGCUGCUGAUGAGACCU (tested as dual guide RNA, chemistry not given here) [CR005364] ; param system: TTR; output Avg % Deletion: 27.11%

Tested on TTR, the item CCUCCUCUGCCUCGCUGGAC (tested as dual guide RNA, chemistry not given here) [CR005368] showed Avg % Deletion equal to 27.27%

// returns Avg % Deletion for ACACAAAUACCAGUCCAGCG (tested as dual guide RNA, chemistry not given here) [CR000689] with TTR; value = 6.30%

Entry AUACCAGUCCAGCGAGGCAG (tested as dual guide RNA, chemistry not given here) [CR005366] under TTR had Avg % Deletion of 76.67%

The reported TTR Avg % Deletion of CAUUGACAGCAGGACUGCCU (tested as dual guide RNA, chemistry not given here) [CR005365] is 64.85%
